# target.or.test.system: hADAM 17 (Homo sapiens, UniProt P78536)
# Construct: purchased R&D systems
# Sequence (P78536 215-824): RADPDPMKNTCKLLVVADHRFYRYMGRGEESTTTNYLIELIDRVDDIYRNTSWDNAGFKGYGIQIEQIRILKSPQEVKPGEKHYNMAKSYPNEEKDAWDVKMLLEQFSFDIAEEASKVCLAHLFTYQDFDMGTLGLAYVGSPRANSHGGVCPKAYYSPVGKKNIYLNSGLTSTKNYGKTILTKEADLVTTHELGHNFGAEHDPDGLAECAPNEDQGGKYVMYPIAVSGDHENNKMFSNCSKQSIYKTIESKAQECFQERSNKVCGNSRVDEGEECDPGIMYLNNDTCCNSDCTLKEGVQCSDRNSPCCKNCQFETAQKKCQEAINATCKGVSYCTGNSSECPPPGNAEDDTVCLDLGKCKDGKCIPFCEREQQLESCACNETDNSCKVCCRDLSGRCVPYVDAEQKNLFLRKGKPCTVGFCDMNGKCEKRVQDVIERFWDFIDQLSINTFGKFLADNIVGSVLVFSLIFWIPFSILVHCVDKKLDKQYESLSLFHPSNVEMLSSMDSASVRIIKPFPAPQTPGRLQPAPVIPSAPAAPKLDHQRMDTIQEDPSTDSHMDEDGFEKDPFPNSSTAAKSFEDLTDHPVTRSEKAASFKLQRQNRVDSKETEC
# test.summary: Residual enzyme activity of other metalloproteases
# Type: biochemical
# details: 200 μM inhibitor; read-out: Residual enzyme activity ADAM17
test.readout: remaining activity at 200 µM (%)

O=C(Cn1c(-c2ccccc2)cc2ccccc21)NO [Example 25]
56
O=C(Cc1c(-c2ccccc2)n[nH]c1-c1ccccc1)NO [Example 1]
7
O=C(Cc1c(-c2ccccc2)nn(Cc2ccc(Cl)c(O)c2F)c1-c1ccccc1)NO [Example 42]
14
O=C(Cc1c(-c2cc(F)c(O)c(Cl)c2)n[nH]c1-c1ccccc1)NO [Example 54]
5
O=C(Cc1c(-c2ccccc2)nn(Cc2ccc3c(c2)OCO3)c1-c1ccccc1)NO [Example 43]
4
O=C(Cc1c(-c2ccc3c(c2)OCO3)n[nH]c1-c1ccccc1)NO [Example 50]
5
O=C(Cn1c(-c2ccccc2)ccc1-c1ccccc1)NO [Example 9]
25

---

A short record of pKi observed with hMeprin β (Homo sapiens, UniProt Q16820) follows.
pKi: −log10 of the molar value.
test.readout: pKi

COc1ccc(-c2n[nH]c(-c3ccccc3)c2CC(=O)NO)cc1OC [Example 49]
7.08
O=C(Cc1c(-c2ccc3c(c2)OCO3)n[nH]c1-c1cccc(C(=O)O)c1)NO [Example 61]
7.36
O=C(CCn1c(-c2ccccc2)nc2ccccc21)NO [Example 14]
4.50

---

# target.or.test.system: hMMP 13 (Homo sapiens)
# Construct: purchased R&D systems
# test.summary: Residual enzyme activity of other metalloproteases
# Type: biochemical
# details: 200 μM inhibitor; read-out: Residual enzyme activity MMP13
Rule: remaining activity at 200 µM below 30% gives yes. Equal to or above 30% gives no.

O=C(Cc1c(-c2ccc3c(c2)OCO3)n[nH]c1-c1ccccc1)NO
yes
O=C(Cc1c(-c2ccccc2)nn(Cc2cccc(C(=O)O)c2)c1-c1ccccc1)NO
no
O=C(Cc1c(-c2ccccc2)nn(Cc2ccc(Cl)c(O)c2F)c1-c1ccccc1)NO
yes
O=C(CCc1c(-c2ccccc2)n[nH]c1-c1ccccc1)NO
no
O=C(Cc1c(-c2ccccc2)nn(Cc2ccc3c(c2)OCO3)c1-c1ccccc1)NO
no
O=C(Cc1c(-c2cc(F)c(O)c(Cl)c2)n[nH]c1-c1ccccc1)NO
yes
O=C(Cn1c(-c2ccccc2)cc2ccccc21)NO
no
O=C(Cn1c(-c2ccccc2)ccc1-c1ccccc1)NO
yes
O=C(Cn1c(-c2ccccc2)nc2ccccc21)NO
no
O=C(Cc1c(-c2ccccc2)n[nH]c1-c1ccccc1)NO
no
COc1cccc(-c2n[nH]c(-c3ccccc3)c2CC(=O)NO)c1
yes

---

# target.or.test.system: hMMP 13 (Homo sapiens, UniProt P45452)
# Construct: purchased R&D systems
# test.summary: Residual enzyme activity of other metalloproteases
# Type: biochemical
# details: 10 μM inhibitor; read-out: Residual enzyme activity MMP13
test.readout: remaining activity at 10 µM (%)

COc1cccc(-c2n[nH]c(-c3ccccc3)c2CC(=O)NO)c1 [Example 47]
85
O=C(Cn1c(-c2ccccc2)nc2ccccc21)NO [Example 13]
102
O=C(Cc1c(-c2ccccc2)nn(Cc2ccc3c(c2)OCO3)c1-c1ccccc1)NO [Example 43]
78
O=C(Cc1c(-c2cccc(C(=O)O)c2)n[nH]c1-c1ccc(Cl)c(O)c1F)NO [Example 63]
105
O=C(Cn1c(-c2ccccc2)cc2ccccc21)NO [Example 25]
77
O=C(Cn1c(-c2ccccc2)ccc1-c1ccccc1)NO [Example 9]
79
O=C(CCc1c(-c2ccccc2)n[nH]c1-c1ccccc1)NO [Example 3]
93
O=C(Cc1c(-c2ccc3c(c2)OCO3)n[nH]c1-c1ccccc1)NO [Example 50]
71
O=C(Cc1c(-c2ccccc2)noc1-c1ccccc1)NO [Example 2]
80
O=C(Cc1c(-c2cc(F)c(O)c(Cl)c2)n[nH]c1-c1ccccc1)NO [Example 54]
88

---

Overview of recorded IC50 for various compounds
# target.or.test.system: hMeprin β (Homo sapiens)
# Sequence (Q16820 62-701): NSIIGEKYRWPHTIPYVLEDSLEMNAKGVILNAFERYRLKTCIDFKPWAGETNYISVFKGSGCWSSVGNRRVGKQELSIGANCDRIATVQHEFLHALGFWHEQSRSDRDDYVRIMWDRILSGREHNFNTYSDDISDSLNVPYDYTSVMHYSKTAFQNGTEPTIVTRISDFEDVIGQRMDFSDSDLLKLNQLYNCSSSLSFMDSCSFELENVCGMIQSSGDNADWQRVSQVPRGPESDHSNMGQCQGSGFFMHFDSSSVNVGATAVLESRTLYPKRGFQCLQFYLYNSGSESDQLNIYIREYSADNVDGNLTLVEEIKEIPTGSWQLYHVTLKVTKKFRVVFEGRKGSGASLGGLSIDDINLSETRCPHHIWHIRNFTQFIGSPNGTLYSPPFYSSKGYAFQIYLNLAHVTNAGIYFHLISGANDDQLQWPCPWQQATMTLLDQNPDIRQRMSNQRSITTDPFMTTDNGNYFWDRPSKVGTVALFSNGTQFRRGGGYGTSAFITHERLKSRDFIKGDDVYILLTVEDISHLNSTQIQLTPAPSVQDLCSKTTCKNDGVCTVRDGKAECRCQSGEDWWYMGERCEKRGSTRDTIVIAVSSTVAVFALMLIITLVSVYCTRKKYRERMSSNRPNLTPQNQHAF
# test.summary: Enzymatic assay, quenched peptide substrate cleavage, method B
# Assay type: biochemical
# details: geometric mean (geometric SD factor in parentheses), read-out: Meprin beta IC50
test.readout: IC50 (nM)

O=C(CCc1c(-c2ccccc2)nn(Cc2ccc(Cl)c(O)c2F)c1-c1ccccc1)NO
1210
O=C(Cc1c([C@@H]2CCCC[C@@H]2C(=O)O)n[nH]c1-c1ccccc1)NO
33
O=C(Cc1c(-c2cccc(C(=O)O)c2)[nH]nc1[C@H]1CC[C@H](C(=O)O)CC1)NO
21
O=C(Cn1c(-c2ccc(C(=O)O)cc2)nc2ccccc21)NO
127
O=C(Cc1c(-c2ccccc2)n[nH]c1-c1ccccc1)NO
119
COc1ccc(-c2n[nH]c(-c3ccccc3)c2CC(=O)NO)cc1OC
84
O=C(Cc1c(-c2ccc(C(=O)O)cc2)n[nH]c1-c1ccccc1)NO
130
O=C(Cc1c(-c2ccc(Cl)c(O)c2F)n[nH]c1-c1ccc(Cl)c(O)c1F)NO
14
O=C(Cc1c(-c2ccccc2)[nH]nc1[C@H]1CC[C@H](C(=O)O)CC1)NO
98
O=C(Cc1c(-c2ccccc2)nn(Cc2ccc3c(c2)OCO3)c1-c1ccccc1)NO
310
O=C(Cn1c(-c2ccc(Cl)c(O)c2F)nc2ccc(C(=O)O)cc21)NO
8
O=C(Cc1c(-c2ccc3c(c2)OCO3)n[nH]c1-c1cccc(C(=O)O)c1)NO
45
O=C(Cn1c(-c2ccccc2C(=O)O)nc2ccccc21)NO
13700
O=C(Cn1c(-c2ccccc2)nc2ccccc21)NO
1140
COc1ccc(-c2n[nH]c(-c3ccccc3)c2CC(=O)NO)cc1
64
O=C(Cc1c(-c2ccc(C(=O)O)cc2)n[nH]c1-c1ccc(C(=O)O)cc1)NO
128
O=C(NO)C1c2ccccc2-c2[nH]nc(-c3ccccc3)c21 (centres unmarked)
1790
N#Cc1ccc(-c2n[nH]c(-c3ccccc3)c2CC(=O)NO)cc1
1020
O=C(Cc1c(-c2ccc(C(=O)O)cc2)n[nH]c1-c1cccc(C(=O)O)c1)NO
32
O=C(Cc1c(-c2ccc(C(=O)O)cc2)n[nH]c1-c1ccc(Cl)c(O)c1F)NO
12
O=C(Cc1c(-c2cccc(C(=O)O)c2)n[nH]c1-c1ccc(Cl)c(O)c1F)NO
4
O=C(Cn1c(-c2ccc(Cl)c(O)c2F)nc2cc(C(=O)O)ccc21)NO
125
O=C(Cc1c(-c2ccc(Cl)c(O)c2F)n[nH]c1-c1ccccc1)NO
61
O=C(Cc1c(-c2ccccc2)nn(Cc2ccc(Cl)c(O)c2F)c1-c1ccccc1)NO
10
O=C(CCn1c(-c2ccccc2)nc2ccccc21)NO
32400
Cc1n[nH]c(-c2ccccc2)c1CC(=O)NO
2170

---

# target.or.test.system: hMMP 9 (Homo sapiens, UniProt P14780)
# Construct: purchased R&D systems
# Sequence (P14780 107-707 limits assumed): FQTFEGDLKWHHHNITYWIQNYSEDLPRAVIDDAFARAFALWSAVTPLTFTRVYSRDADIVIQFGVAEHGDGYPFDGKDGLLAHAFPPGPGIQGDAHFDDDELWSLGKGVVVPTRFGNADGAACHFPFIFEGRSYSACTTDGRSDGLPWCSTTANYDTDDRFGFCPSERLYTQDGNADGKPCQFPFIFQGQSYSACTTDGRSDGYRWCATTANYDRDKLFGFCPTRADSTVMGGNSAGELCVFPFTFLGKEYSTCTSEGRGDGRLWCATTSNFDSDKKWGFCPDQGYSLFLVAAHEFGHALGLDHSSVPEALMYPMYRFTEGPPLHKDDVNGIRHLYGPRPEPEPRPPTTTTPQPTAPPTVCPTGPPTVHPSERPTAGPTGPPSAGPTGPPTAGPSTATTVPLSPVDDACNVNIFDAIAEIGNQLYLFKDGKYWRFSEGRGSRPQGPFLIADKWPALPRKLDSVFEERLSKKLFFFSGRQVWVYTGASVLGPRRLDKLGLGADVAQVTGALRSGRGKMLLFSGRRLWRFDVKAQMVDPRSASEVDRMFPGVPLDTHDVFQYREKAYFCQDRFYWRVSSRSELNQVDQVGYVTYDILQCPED
# test.summary: Residual enzyme activity of other metalloproteases
# Type: biochemical
# details: 10 μM inhibitor; read-out: Residual enzyme activity MMP9
# Method: The determination of enzymatic activity was based on the cleavage of internally quenched peptide substrates. A typical assay of 250 μl total volume measured in black 96 well plates consisted of 100 μl buffer, 50 μl enzyme at a final concentration of 5e-8 M to 2e-10 M, 50 μl substrate (0.15 to 80 μM, in buffer, 0.5% DMSO) and 50 μl inhibitor solution (in buffer, 1% DMSO). In case of 125 μl assay volume (black 96 half area well plates) all volumes were cut in half. […]
So basically: is remaining activity at 10 µM under 90%? Then Yes. Not under? Then No.

O=C(Cc1c(-c2cc(F)c(O)c(Cl)c2)n[nH]c1-c1ccccc1)NO
Yes
O=C(Cc1c(-c2ccccc2)n[nH]c1-c1ccccc1)NO
Yes
O=C(Cn1c(-c2ccccc2)nc2ccccc21)NO
No
O=C(Cc1c(-c2ccccc2)nn(Cc2ccc3c(c2)OCO3)c1-c1ccccc1)NO
Yes
O=C(Cc1c(-c2ccccc2)nn(Cc2ccc(Cl)c(O)c2F)c1-c1ccccc1)NO
Yes
O=C(Cn1c(-c2ccccc2)nnc1-c1ccccc1)NO
No
O=C(Cc1c(-c2cccc(C(=O)O)c2)n[nH]c1-c1ccc(Cl)c(O)c1F)NO
No
O=C(Cc1c(-c2ccccc2)nn(Cc2cccc(C(=O)O)c2)c1-c1ccccc1)NO
Yes
O=C(Cc1c(-c2ccc3c(c2)OCO3)n[nH]c1-c1ccc2c(c1)OCO2)NO
Yes
